Biological target: Tak1 (Homo sapiens)
Construct: gene MAP3K7
Sequence (O43318 whole entry): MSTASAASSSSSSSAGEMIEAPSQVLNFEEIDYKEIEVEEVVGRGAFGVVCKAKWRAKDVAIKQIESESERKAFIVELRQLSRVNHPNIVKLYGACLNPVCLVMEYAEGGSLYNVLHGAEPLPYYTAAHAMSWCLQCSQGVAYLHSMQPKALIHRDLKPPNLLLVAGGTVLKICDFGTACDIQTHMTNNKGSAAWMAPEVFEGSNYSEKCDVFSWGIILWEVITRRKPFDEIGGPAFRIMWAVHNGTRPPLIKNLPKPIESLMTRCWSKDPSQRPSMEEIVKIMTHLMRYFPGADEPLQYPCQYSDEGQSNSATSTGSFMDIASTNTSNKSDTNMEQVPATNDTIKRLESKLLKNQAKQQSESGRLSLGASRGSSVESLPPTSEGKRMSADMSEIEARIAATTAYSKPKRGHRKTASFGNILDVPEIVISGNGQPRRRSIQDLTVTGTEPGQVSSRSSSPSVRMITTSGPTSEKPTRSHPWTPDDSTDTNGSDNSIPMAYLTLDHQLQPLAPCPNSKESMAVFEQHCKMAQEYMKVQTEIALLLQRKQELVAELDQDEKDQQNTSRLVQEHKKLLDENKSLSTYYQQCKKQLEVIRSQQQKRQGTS
Sequence (Q15750 whole entry partner): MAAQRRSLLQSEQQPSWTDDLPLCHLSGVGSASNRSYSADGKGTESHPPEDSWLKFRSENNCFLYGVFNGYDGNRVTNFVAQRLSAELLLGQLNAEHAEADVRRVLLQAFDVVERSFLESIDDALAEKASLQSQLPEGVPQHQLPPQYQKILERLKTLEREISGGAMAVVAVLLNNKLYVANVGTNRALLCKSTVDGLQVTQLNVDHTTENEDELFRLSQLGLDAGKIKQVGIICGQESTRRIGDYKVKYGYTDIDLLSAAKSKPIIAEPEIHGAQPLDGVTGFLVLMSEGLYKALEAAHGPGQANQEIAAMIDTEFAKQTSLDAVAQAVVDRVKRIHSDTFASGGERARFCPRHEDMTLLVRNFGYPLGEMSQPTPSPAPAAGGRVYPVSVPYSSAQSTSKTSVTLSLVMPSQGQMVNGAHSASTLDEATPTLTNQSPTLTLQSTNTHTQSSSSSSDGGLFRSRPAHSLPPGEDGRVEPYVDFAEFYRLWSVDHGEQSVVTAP
Test: in vitro kinase assay, recombinant enzyme (MRC Dundee)
Format: biochemical
Measurement kind: IC50 (nM)
Give your result in nM as a bare value.

Per the records, this compound ( Cc1c[nH]c(=O)c2c1[nH]c1ccc3cc(OCCN4CCCCC4)ccc3c12 [C5M] ) has IC50 equal to 6

* * *

Target: ARK5/Nuak1 (Homo sapiens, UniProt O60285)
Sequence (O60285 whole entry): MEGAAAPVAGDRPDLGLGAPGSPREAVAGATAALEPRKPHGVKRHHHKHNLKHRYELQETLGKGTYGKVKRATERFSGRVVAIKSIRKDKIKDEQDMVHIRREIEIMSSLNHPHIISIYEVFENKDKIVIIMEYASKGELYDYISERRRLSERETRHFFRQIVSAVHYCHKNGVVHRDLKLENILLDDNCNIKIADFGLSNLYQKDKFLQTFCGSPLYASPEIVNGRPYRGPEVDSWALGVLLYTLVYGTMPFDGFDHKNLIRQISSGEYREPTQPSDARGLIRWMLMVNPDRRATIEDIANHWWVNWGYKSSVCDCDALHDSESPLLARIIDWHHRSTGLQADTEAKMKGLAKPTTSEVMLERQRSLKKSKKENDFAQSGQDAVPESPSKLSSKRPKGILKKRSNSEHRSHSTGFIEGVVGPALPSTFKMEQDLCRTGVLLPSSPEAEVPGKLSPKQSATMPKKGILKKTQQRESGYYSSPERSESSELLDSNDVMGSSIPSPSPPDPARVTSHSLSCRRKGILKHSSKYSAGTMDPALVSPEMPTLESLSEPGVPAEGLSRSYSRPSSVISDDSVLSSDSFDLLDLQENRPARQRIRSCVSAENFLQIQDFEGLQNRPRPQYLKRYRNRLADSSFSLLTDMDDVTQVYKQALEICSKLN
Assay: in vitro kinase assay, recombinant enzyme (MRC Dundee)
Measurement kind: IC50 (nM)
State just the number; it will be interpreted in nM.

Sample Cc1c[nH]c(=O)c2c1[nH]c1ccc3cc(OCCN4CCCCC4)ccc3c12 ; IC50 observed: 4.8

* * *

Target: phosphorylase kinase
Experiment: in vitro kinase assay, recombinant enzyme (MRC Dundee)
Measurement kind: pIC50
Value format note: pIC50 is -log10 of concentration (mol/L); just state the number.

Lab book: pIC50 of Cc1c[nH]c(=O)c2c1[nH]c1ccc3cc(OCCN4CCCCC4)ccc3c12 [C5M] noted as 7.73

* * *

Biological target: UniProt Q96GD4
Sequence (Q96GD4 whole entry): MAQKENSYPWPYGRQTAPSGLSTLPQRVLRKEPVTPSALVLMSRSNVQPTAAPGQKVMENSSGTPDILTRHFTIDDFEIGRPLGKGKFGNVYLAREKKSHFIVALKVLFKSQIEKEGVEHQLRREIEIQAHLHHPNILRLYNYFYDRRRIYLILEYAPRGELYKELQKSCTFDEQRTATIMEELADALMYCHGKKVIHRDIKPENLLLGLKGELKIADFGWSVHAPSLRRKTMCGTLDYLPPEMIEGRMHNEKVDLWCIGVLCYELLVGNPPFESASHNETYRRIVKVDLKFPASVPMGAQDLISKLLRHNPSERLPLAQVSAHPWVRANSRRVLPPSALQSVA
Experiment: in vitro kinase assay, recombinant enzyme (MRC Dundee)
Measurement kind: pIC50
Convention used: pIC50 is expressed as -log10 of the molar concentration.

pIC50 recorded for this molecule, Cc1c[nH]c(=O)c2c1[nH]c1ccc3cc(OCCN4CCCCC4)ccc3c12 [C5M] , is 6.93

* * *

Biological target: Sik2 (Homo sapiens, UniProt Q9H0K1)
Sequence (Q9H0K1 whole entry): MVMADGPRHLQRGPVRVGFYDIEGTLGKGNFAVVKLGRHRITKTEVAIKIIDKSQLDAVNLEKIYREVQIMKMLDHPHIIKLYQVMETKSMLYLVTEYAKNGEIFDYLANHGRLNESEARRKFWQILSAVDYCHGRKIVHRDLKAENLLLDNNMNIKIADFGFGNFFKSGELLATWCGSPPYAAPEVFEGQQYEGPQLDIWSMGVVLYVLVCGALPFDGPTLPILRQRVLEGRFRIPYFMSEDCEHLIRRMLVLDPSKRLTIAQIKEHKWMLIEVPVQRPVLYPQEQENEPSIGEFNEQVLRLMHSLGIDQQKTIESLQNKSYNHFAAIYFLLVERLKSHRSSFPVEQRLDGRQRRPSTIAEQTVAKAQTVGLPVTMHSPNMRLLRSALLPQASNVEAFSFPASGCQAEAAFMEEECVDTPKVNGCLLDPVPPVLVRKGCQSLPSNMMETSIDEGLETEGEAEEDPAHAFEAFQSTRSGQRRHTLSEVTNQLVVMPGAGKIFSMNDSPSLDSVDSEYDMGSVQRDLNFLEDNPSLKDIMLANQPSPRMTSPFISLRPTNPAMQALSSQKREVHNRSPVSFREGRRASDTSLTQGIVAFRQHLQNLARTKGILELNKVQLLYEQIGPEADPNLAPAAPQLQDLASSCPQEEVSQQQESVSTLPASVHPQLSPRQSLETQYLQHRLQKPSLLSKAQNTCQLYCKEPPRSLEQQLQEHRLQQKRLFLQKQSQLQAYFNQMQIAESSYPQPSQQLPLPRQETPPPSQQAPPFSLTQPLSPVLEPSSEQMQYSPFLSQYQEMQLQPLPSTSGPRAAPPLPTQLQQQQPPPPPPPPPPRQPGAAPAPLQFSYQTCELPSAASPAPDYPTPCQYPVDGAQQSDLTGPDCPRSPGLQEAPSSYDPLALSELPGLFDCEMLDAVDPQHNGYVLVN
Test: in vitro kinase assay, recombinant enzyme (MRC Dundee)
Measurement kind: IC50 (nM)
The response must be a number in nM with no trailing unit.

Form field, IC50 with Sik2 (Homo sapiens, UniProt Q9H0K1), item Cc1c[nH]c(=O)c2c1[nH]c1ccc3cc(OCCN4CCCCC4)ccc3c12 : 12.4

* * *

Molecular target: Chk2 (Homo sapiens, UniProt O96017)
Sequence (O96017 whole entry): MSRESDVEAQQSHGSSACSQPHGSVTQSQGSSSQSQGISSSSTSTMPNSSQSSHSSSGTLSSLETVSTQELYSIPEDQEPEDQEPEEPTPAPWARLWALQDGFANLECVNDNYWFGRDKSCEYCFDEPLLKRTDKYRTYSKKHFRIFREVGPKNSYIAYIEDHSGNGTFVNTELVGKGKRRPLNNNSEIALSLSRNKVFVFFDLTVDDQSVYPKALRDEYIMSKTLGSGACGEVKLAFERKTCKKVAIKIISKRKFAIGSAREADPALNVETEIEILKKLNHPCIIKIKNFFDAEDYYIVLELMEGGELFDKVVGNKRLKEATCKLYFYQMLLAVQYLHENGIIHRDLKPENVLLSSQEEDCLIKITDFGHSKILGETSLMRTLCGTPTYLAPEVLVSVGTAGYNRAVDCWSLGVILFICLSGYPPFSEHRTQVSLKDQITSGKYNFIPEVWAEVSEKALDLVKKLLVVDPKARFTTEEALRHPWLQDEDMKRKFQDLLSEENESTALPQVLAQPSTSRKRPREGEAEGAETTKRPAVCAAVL
Test: in vitro kinase assay, recombinant enzyme (MRC Dundee)
Measurement kind: pIC50
For clarity, pIC50 is expressed as the negative log10 of concentration in mol/L.

Value of measured pIC50 for the entry Cc1c[nH]c(=O)c2c1[nH]c1ccc3cc(OCCN4CCCCC4)ccc3c12 : 7.87

The measured values listed here are drawn from paper PMC4673153.
